Reported MIC values for the following compounds.
system: Pseudomonas aeruginosa; experiment: Antimicrobial activity against Pseudomonas aeruginosa isolate OS-210 producing metallo-beta-lactamase VIM2 by Etest; assay type: functional
MEASURED PARAMETER: MIC (µg/mL)

COMPOUND	LIMIT OPERATOR	RESULT NUMBER
CC(C)(O/N=C(\C(=O)N[C@@H]1C(=O)N2C(C(=O)[O-])=C(C[n+]3ccccc3)CS[C@H]12)c1csc(N)n1)C(=O)O	=	64
CO/N=C(\C(=O)N[C@@H]1C(=O)N2C(C(=O)[O-])=C(C[N+]3(C)CCCC3)CS[C@H]12)c1csc(N)n1 [CEFEPIME]	=	32
O=C(O)C1=CC[C@@H]2CC(=O)N12	>	32
NC[C@H]1O[C@H](O[C@H]2[C@H](O)[C@@H](O[C@H]3O[C@H](CO)[C@@H](O)[C@H](N)[C@H]3O)[C@H](N)C[C@@H]2N)[C@H](N)C[C@@H]1O	=	32
NCC[C@H](O)C(=O)N[C@@H]1C[C@H](N)[C@@H](O[C@H]2O[C@H](CN)[C@@H](O)[C@H](O)[C@H]2O)[C@H](O)[C@H]1O[C@H]1O[C@H](CO)[C@@H](O)[C@H](N)[C@H]1O	=	32
O=C(O)c1cn(C2CC2)c2cc(N3CCNCC3)c(F)cc2c1=O	=	16

These entries and their values trace back to ChEMBL document CHEMBL1240351.
